Data origin: ChEMBL document CHEMBL1135732

Species on record: Mus musculus
experimental_protocol: Number of tumor-free survivors in a group of five mice
Assay type: functional
observation_type: Tumor-free (survivors/total)
Field: numeric (survivors/total). Do not append units.

Look over these answered cases.
// query Given the compound CCCCOc1nc(C(Cl)(Cl)Cl)c(Cl)c(OC)c1Cl , what is its reported Tumor-free?
// result 0

// query Given the compound Oc1nc(C(Cl)(Cl)Cl)c(Cl)c(O)c1Cl , what is its reported Tumor-free?
// result 0

// query Given the compound COc1nc(C(Cl)(Cl)Cl)c(Cl)c(OC(C)C)c1Cl , what is its reported Tumor-free?
// result 2

// query Given the compound COc1nc(C(Cl)(Cl)Cl)c(Cl)c(OC)c1Cl , what is its reported Tumor-free?
// result 5

Continuing:
// query Given the compound CCCOc1c(Cl)c(OC)nc(C(Cl)(Cl)Cl)c1Cl , what is its reported Tumor-free?
// result 0

// query Given the compound CCCCOc1nc(C(Cl)(Cl)Cl)c(Cl)c(OCCCC)c1Cl , what is its reported Tumor-free?
// result 0

// query Given the compound CCOc1nc(C(Cl)(Cl)Cl)c(Cl)c(OC(=O)COC)c1Cl , what is its reported Tumor-free?
// result 0

// query Given the compound FC(F)(F)COc1nc(C(Cl)(Cl)Cl)c(Cl)c(OCC(F)(F)F)c1Cl , what is its reported Tumor-free?
// result 0

// query Given the compound COc1c(Cl)c(Oc2ccccc2)nc(C(Cl)(Cl)Cl)c1Cl , what is its reported Tumor-free?
// result 0

// query Given the compound Clc1c(Oc2ccccc2)nc(C(Cl)(Cl)Cl)c(Cl)c1Oc1ccccc1 , what is its reported Tumor-free?
// result 0

// query Given the compound Oc1c(Cl)c(OCC(F)(F)F)nc(C(Cl)(Cl)Cl)c1Cl , what is its reported Tumor-free?
// result 0

// query Given the compound CCOc1nc(C(Cl)(Cl)Cl)c(Cl)c(O)c1Cl , what is its reported Tumor-free?
// result 0

// query Given the compound CCOc1c(Cl)c(OC)nc(C(Cl)(Cl)Cl)c1Cl , what is its reported Tumor-free?
// result 5
